These entries and their values trace back to patent US11292767B2.

experimental-target: MCT1 (Homo sapiens (Human), UniProt P53985)
Sequence (P53985 whole entry): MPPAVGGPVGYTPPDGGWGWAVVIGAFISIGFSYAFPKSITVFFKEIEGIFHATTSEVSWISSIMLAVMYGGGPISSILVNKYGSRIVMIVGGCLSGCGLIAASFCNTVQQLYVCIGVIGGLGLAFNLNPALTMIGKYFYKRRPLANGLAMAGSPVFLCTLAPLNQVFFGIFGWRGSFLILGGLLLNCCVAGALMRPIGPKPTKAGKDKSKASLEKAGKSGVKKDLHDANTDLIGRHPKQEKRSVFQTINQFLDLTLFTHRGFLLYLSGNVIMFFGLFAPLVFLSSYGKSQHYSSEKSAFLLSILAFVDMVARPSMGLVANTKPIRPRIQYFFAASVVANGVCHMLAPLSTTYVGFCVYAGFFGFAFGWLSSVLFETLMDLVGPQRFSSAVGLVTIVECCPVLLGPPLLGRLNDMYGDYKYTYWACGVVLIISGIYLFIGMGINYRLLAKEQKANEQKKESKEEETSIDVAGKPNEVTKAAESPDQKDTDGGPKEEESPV
Sequence (P35613 140-385 partner): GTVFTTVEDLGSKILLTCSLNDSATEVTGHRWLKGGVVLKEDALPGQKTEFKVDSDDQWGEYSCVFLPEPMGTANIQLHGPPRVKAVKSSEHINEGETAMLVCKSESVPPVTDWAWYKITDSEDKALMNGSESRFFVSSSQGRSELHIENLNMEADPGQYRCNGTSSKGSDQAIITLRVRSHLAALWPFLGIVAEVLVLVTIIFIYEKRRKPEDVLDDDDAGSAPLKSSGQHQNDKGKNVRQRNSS
assay-name: Assay 4: MCT1-mediated lactate transport in BT20 breast cancer cells
Type: cell-based
applied-conditions: lactate transport (Table 27)
IC50 values for the compounds below.
measurement-type: IC50

CC(C)(OCc1cc(-c2ccsc2)n(Cc2ccccc2Cl)n1)C(=O)O    > 100000 nM
CC(C)C(=O)Nc1cccc(-c2cc(COC(C)(C)C(=O)O)nn2Cc2ccccc2Cl)c1    > 100000 nM
CC(C)(OCc1cc(Nc2ccccc2)n(Cc2ccccc2Cl)n1)C(=O)O    > 100000 nM
CC(C)(OCc1cc(-c2cccc(OCC(F)(F)F)c2)n(Cc2ccccc2Cl)n1)C(=O)O    > 33000 nM
CC(C)NC(=O)c1cccc(-c2cc(COC(C)(C)C(=O)O)nn2Cc2ccccc2Cl)c1    > 100000 nM
CC(C)(OCc1cc(-c2cc(OC3CC3)cs2)n(Cc2ccccc2Cl)n1)C(=O)O    55 nM
COc1cccc(-c2cc(COC(C)(C)C(=O)O)nn2-c2ccccc2Cl)c1    > 133000 nM
CC(C)(OCc1cc(-c2cccc(CN3CCOCC3)c2)n(Cc2ccccc2Cl)n1)C(=O)O    > 100000 nM
CC(C)(OCc1cc(-c2cccc(S(C)(=O)=O)c2)n(Cc2ccccc2Cl)n1)C(=O)O    > 100000 nM
COc1cccc(-c2cc(COC(C)(C)C(=O)O)nn2Cc2ccccc2Cl)c1    > 100000 nM
COc1cccc(-c2cc(COC(C)(C)C(=O)O)nn2Cc2ccccc2)c1    > 100000 nM
CC(C)CNc1cccc(-c2cc(COC(C)(C)C(=O)O)nn2Cc2ccccc2Cl)c1    > 11000 nM
CC(C)(OCc1cc(-c2cccc(OC(F)(F)F)c2)n(Cc2ccccc2Cl)n1)C(=O)O    > 11000 nM
CC(C)(OCc1cc(-c2cscn2)n(Cc2ccccc2Cl)n1)C(=O)O    > 100000 nM
CCCn1ncc2ccc(-c3cc(COC(C)(C)C(=O)O)nn3-c3ccccc3N3CCCC3)cc21    41000 nM

----------
assay-name: Metabolic stability in human liver microsomes (in vitro t1/2)
Type: in vitro ADME
applied-conditions: human liver microsomes 0.5 mg/mL, 2 μM compound, % remaining at 60 min
measurement-type: Human microsome % 60 min (%)

CCOc1ccccc1Cn1nc(COC(C)(C)C(=O)O)cc1-c1cc(OC)cc(OC)c1    78
CCOc1cccc(-n2nc(COC(C)(C)C(=O)O)cc2-c2cc(OC)cc(OC)c2)c1    88
CCOc1ccccc1Cn1nc(COC(C)(C)C(=O)O)cc1-c1cccc(OC2CC2)c1    58
CCC(C)(OCc1cc(-c2cccc(OC)c2)n(Cc2ccccc2Cl)n1)C(=O)O (centres unmarked)    95
CC[C@@](C)(OCc1cc(-c2cc(OC)cc(OC)c2)n(-c2ccccc2Cl)n1)C(=O)O    110
Cc1ccccc1-n1nc(COC(C)(C)C(=O)O)cc1-c1cccc(OC2CCC2)c1    82
COc1csc(-c2cc(COC(C)(C)C(=O)O)nn2Cc2ccccc2Cl)c1    78
Cn1ncc2cccc(-n3nc(COC(C)(C)C(=O)O)cc3-c3cccc(OCC(C)(C)C)c3)c21    84
CCOc1cc(OCC)cc(-c2cc(COC(C)(C)C(=O)O)nn2-c2ccccc2Cl)c1    88
CC(C)Cc1ncc(-c2cc(COC(C)(C)C(=O)O)nn2Cc2ccccc2Cl)o1    80
CCn1ncc2ccc(-c3cc(COC(C)(C)C(=O)O)nn3-c3ccccc3Cl)cc21    78
Cn1ncc2ccc(-c3cc(COC(C)(C)C(=O)O)nn3Cc3ccccc3Cl)cc21    95
CC[C@](C)(OCc1cc(-c2cccc(OC)c2)n(Cc2ccccc2Cl)n1)C(=O)O    81
COc1ccc(-c2cc(COC(C)(C)C(=O)O)nn2Cc2ccccc2Cl)s1    82
CC(C)(OCc1cc(-c2cccc(OC3CC3)c2)n(Cc2ccccc2N2CCCC2)n1)C(=O)O    32
CC(C)(OCc1cc(-c2cccc(OCC3CCC3)c2)n(-c2ccccc2Cl)n1)C(=O)O    66
CC(C)COc1cccc(-c2cc(COC(C)(C)C(=O)O)nn2-c2cccc3cnn(C)c23)c1    87
